The following compounds are shown together with reported fold resistance (FR), strain H values.
Test system: clinically isolated HIV strain H
Format: cell-based
MEASUREMENT CONTEXT: FR=EC50(mutant strain)/EC50(HIV-1 strain LAI)

{"COMPOUND": "Cc1c(N)cccc1C(=O)N[C@@H](Cc1ccccc1)[C@H](O)CN(CC(C)C)S(=O)(=O)c1ccc2nc(NC(=O)CN3CCN(C)CC3)sc2c1.O=C(O)C(F)(F)F [Compound 66]", "STUDY TARGET": "clinically isolated HIV strain H", "fold resistance (FR), strain H": 0.9}
{"COMPOUND": "CC(C)CN(C[C@@H](O)[C@H](Cc1ccccc1)NC(=O)OC1COC2OCCC12)S(=O)(=O)c1ccc2nc(NCCN(C)C)sc2c1 (mixture of isomers) [Compound 4]", "STUDY TARGET": "clinically isolated HIV strain H", "fold resistance (FR), strain H": 1.9}
{"COMPOUND": "CC(C)CN(C[C@@H](O)[C@H](Cc1ccccc1)NC(=O)O[C@H]1CO[C@H]2OCC[C@H]21)S(=O)(=O)c1ccc2nc(NCCCN(C)C)sc2c1 [Compound 22]", "STUDY TARGET": "clinically isolated HIV strain H", "fold resistance (FR), strain H": 0.4}
{"COMPOUND": "CC(C)CN(C[C@@H](O)[C@H](Cc1ccccc1)NC(=O)O[C@H]1CCOC1)S(=O)(=O)c1ccc2nc(NC(=O)CN(C)C)sc2c1 [Compound 34]", "STUDY TARGET": "clinically isolated HIV strain H", "fold resistance (FR), strain H": 11.4}
{"COMPOUND": "CC(C)CN(C[C@@H](O)[C@H](Cc1ccccc1)NC=O)S(=O)(=O)c1ccc2nc(NC(=O)CN3CCCC3)sc2c1 [Compound 55]", "STUDY TARGET": "clinically isolated HIV strain H", "fold resistance (FR), strain H": 10.0}
{"COMPOUND": "Cc1c(N)cccc1C(=O)N[C@@H](Cc1ccccc1)[C@H](O)CN(CC(C)C)S(=O)(=O)c1ccc2nc(NC(=O)CN3CCCC3)sc2c1 [Compound 62]", "STUDY TARGET": "clinically isolated HIV strain H", "fold resistance (FR), strain H": 3.2}
{"COMPOUND": "CC(C)CN(C[C@@H](O)[C@H](Cc1ccccc1)NC(=O)O[C@H]1CO[C@H]2OCC[C@H]21)S(=O)(=O)c1ccc2nc(N3CCN(C)CC3=O)sc2c1 [Compound 26]", "STUDY TARGET": "clinically isolated HIV strain H", "fold resistance (FR), strain H": 20.3}
{"COMPOUND": "Cc1c(N)cccc1C(=O)N[C@@H](Cc1ccccc1)[C@H](O)CN(CC(C)C)S(=O)(=O)c1ccc2nc(NCCN3CCCC3)sc2c1 [Compound 45]", "STUDY TARGET": "clinically isolated HIV strain H", "fold resistance (FR), strain H": 1.2}
{"COMPOUND": "CC(C)CN(C[C@@H](O)[C@H](Cc1ccccc1)NC(=O)O[C@H]1CCOC1)S(=O)(=O)c1ccc2nc(NCCN3CCCC3)sc2c1.O=C(O)C(F)(F)F [Compound 68]", "STUDY TARGET": "clinically isolated HIV strain H", "fold resistance (FR), strain H": 7.3}
{"COMPOUND": "CC(C)CN(C[C@@H](O)[C@H](Cc1ccccc1)NC(=O)OCc1cncs1)S(=O)(=O)c1ccc2nc(NCCN3CCNCC3)sc2c1 [Compound 57]", "STUDY TARGET": "clinically isolated HIV strain H", "fold resistance (FR), strain H": 1.6}
{"COMPOUND": "CC(C)CN(C[C@@H](O)[C@H](Cc1ccccc1)NC(=O)O[C@H]1CO[C@H]2OCC[C@H]21)S(=O)(=O)c1ccc2nc(NC(=O)CN3CCCC3)sc2c1.O=C(O)/C=C/C(=O)O [Compound 13]", "STUDY TARGET": "clinically isolated HIV strain H", "fold resistance (FR), strain H": 0.6}

* * *

System: clinically isolated HIV strain L
ASSAY NAME: Antiviral spectrum, cellular assay (fold resistance), strain L
Assay type: cell-based
MEASUREMENT CONTEXT: FR=EC50(mutant strain)/EC50(HIV-1 strain LAI)
Method: HIV- or mock-infected MT4 cells were incubated for five days in the presence of various concentrations of the inhibitor. […] Cell viability is measured by measuring the concentration of MTT, a yellow, water soluble tetrazolium dye that is converted to a purple, water insoluble formazan in the mitochondria of living cells only. Upon solubilization of the resulting formazan crystals with isopropanol, the absorbance of the solution is monitored at 540 nm. […]

{"MOLECULE": "CC(C)CN(C[C@@H](O)[C@H](Cc1ccccc1)NC(=O)O[C@H]1CO[C@H]2OCC[C@H]21)S(=O)(=O)c1ccc2nc(NC(=O)CN3CCCC3)sc2c1.Cl", "fold resistance (FR), strain L": 0.1}
{"MOLECULE": "CC(=O)Nc1nc2ccc(S(=O)(=O)N(CC(C)C)CC(O)C(Cc3ccccc3)NC(=O)OC3COC4OCCC34)cc2s1 (mixture of isomers)", "fold resistance (FR), strain L": 0.2}
{"MOLECULE": "CC(C)CN(C[C@@H](O)[C@H](Cc1ccccc1)NC(=O)O[C@H]1CCOC1)S(=O)(=O)c1ccc2nc(NC(=O)CN(C)C)sc2c1", "fold resistance (FR), strain L": 1.2}
{"MOLECULE": "CC(C)CN(CC(O)C(Cc1ccccc1)NC(=O)OC1COC2OCCC12)S(=O)(=O)c1ccc2nc(NC(=O)CN(C)C)sc2c1 (stereo not drawn) [Compound 11]", "fold resistance (FR), strain L": 0.3}
{"MOLECULE": "CC(C)CN(C[C@@H](O)[C@H](Cc1ccccc1)NC(=O)O[C@H]1CCOC1)S(=O)(=O)c1ccc2nc(NC(=O)CN3CCN(C)CC3)sc2c1.O=C(O)C(F)(F)F", "fold resistance (FR), strain L": 0.2}
{"MOLECULE": "CC(C)CN(CC(O)C(Cc1ccccc1)NC(=O)OC1COC2OCCC12)S(=O)(=O)c1ccc2nc(NC(=O)CN3CCCC3)sc2c1 (mixture of isomers) [Compound 7]", "fold resistance (FR), strain L": 0.1}
{"MOLECULE": "CC(=O)N(C)c1nc2ccc(S(=O)(=O)N(CC(C)C)CC(O)C(Cc3ccccc3)NC(=O)OC3COC4OCCC34)cc2s1 (mixture of isomers)", "fold resistance (FR), strain L": 0.7}
{"MOLECULE": "Cc1cc(N)ccc1C(=O)NC(Cc1ccccc1)C(O)CN(CC(C)C)S(=O)(=O)c1ccc2nc(NC(=O)CN(C)C)sc2c1 (stereo not drawn)", "fold resistance (FR), strain L": 1.0}
{"MOLECULE": "CC(C)CN(C[C@@H](O)[C@H](Cc1ccccc1)NC(=O)O[C@H]1CO[C@H]2OCC[C@H]21)S(=O)(=O)c1ccc2nc(NC(=O)CN3CCCC3)sc2c1.O=C(O)C(=O)O", "fold resistance (FR), strain L": 0.1}
{"MOLECULE": "CC(C)CN(C[C@@H](O)[C@H](Cc1ccccc1)NC(=O)O[C@H]1CCOC1)S(=O)(=O)c1ccc2nc(NC(=O)CN3CCNCC3)sc2c1", "fold resistance (FR), strain L": 0.2}
{"MOLECULE": "CCOC(=O)Nc1nc2ccc(S(=O)(=O)N(CC(C)C)CC(O)C(Cc3ccccc3)NC(=O)OC3COC4OCCC34)cc2s1 (stereo not drawn)", "fold resistance (FR), strain L": 0.2}
{"MOLECULE": "CC(C)CN(CC(O)C(Cc1ccccc1)NC(=O)OC1COC2OCCC12)S(=O)(=O)c1ccc2nc(NC(=O)CN3CCOCC3)sc2c1 (mixture of isomers)", "fold resistance (FR), strain L": 0.2}

* * *

Each record here notes measured fold resistance (FR), strain S.
Tested on: virus strain S (R13080)
ASSAY NAME: microbe, parasite or virus in culture
Format: cell-based, HIV
MEASUREMENT CONTEXT: FR=EC50(mutant strain)/EC50(HIV-1 strain LAI); strain S

{"MOLECULE": "CC(C)CN(C[C@@H](O)[C@H](Cc1ccccc1)NC(=O)O[C@H]1CO[C@H]2OCC[C@H]21)S(=O)(=O)c1ccc2nc(NC(=O)CN3CCCC3)sc2c1.Cl", "fold resistance (FR), strain S": 0.7}
{"MOLECULE": "CC(C)CN(C[C@@H](O)[C@H](Cc1ccccc1)NC(=O)OCc1cncs1)S(=O)(=O)c1ccc2nc(NCCN3CCNCC3)sc2c1", "fold resistance (FR), strain S": 1.6}
{"MOLECULE": "CCOC(=O)N(CCN(C)C)c1nc2ccc(S(=O)(=O)N(CC(C)C)C[C@@H](O)[C@H](Cc3ccccc3)NC(=O)O[C@H]3CO[C@H]4OCC[C@H]43)cc2s1", "fold resistance (FR), strain S": 4.4}
{"MOLECULE": "CC(=O)N(C)c1nc2ccc(S(=O)(=O)N(CC(C)C)CC(O)C(Cc3ccccc3)NC(=O)OC3COC4OCCC34)cc2s1 (mixture of isomers)", "fold resistance (FR), strain S": 29.3}
{"MOLECULE": "CC(C)CN(C[C@@H](O)[C@H](Cc1ccccc1)NC(=O)OCc1cccnc1)S(=O)(=O)c1ccc2nc(NCCN3CCNCC3)sc2c1", "fold resistance (FR), strain S": 4.4}
{"MOLECULE": "CC(C)CN(CC(O)C(Cc1ccccc1)NC(=O)OC1COC2OCCC12)S(=O)(=O)c1ccc2nc(NC(=O)CN(C)C)sc2c1 (stereo not drawn) [Compound 11]", "fold resistance (FR), strain S": 1.1}
